Sourced from patent EP1976513B1

- SYSTEM NAME: 5-HT Transporter (SERT) Sites in Mouse Brain (Mus musculus)
- Construct: Whole brains were removed and cortex and striata dissected out; from tissue; host or cells: C57BL/6 mouse frontal cortex homogenate
- Sequence (Q60857 whole entry): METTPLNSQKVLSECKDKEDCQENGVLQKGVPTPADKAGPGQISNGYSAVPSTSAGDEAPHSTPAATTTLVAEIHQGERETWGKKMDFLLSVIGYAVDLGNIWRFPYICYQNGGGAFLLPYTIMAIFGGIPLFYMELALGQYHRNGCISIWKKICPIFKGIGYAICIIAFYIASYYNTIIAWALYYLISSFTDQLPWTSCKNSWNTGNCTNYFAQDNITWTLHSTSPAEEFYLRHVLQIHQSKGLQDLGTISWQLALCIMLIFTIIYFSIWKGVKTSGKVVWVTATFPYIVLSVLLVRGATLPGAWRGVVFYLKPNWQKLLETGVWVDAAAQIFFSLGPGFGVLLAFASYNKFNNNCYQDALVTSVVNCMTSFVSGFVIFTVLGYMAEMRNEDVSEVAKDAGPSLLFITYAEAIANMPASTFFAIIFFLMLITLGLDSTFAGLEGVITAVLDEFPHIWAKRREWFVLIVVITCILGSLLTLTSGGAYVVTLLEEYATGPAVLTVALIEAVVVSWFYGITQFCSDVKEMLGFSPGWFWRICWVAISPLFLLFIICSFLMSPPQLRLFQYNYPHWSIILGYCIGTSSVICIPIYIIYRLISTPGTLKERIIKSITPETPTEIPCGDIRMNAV
- RUN DESCRIPTION: Ex vivo [3H] citalopram binding after oral dosing
- Design: species or system C57BL/6 mice
- ASSAY SETUP: 3 mg/kg, mice sacrificed 60 minutes after treatment, cortex
VALUE TYPE: Mean Specific Binding (dpm) ± S.E.M., SERT
Please respond with the number in dpm and leave the unit unwritten.

molecule="CNC(C)C1(c2ccc3ccccc3c2)CCCCC1 (single isomer, unassigned) [58 E1]" assay_value=3021
molecule="CC(N(C)C)C1(c2ccc3ccccc3c2)CCCCC1 (single isomer, unassigned) [56 E1]" assay_value=1346
molecule="CN(C)C[C@]1(c2ccc3ccccc3c2)CC[C@](C)(O)CC1 [Compound 225]" assay_value=2118
molecule="CN(C)CC1(c2ccc(Cl)c(Cl)c2)CCC(C)(O)CC1 (centres unmarked) [Compound 277]" assay_value=1491

Let us examine a further case.
# input Requested field: Mean Specific Binding (dpm) ± S.E.M., SERT. Item: CNCC1(c2ccc(Cl)c(Cl)c2)CCC(C)(O)CC1 (centres unmarked) [Compound 276]
# output 3685
